experiment: half life was evaluated; format: ADME
measurement-kind: half-life
Respond with a number, then the unit of measure.

### Prompt # get_value(readout='half-life', item= CC(C)(N)C(=O)N[C@H](CCCc1ccccc1)C(=O)N1CCC2(CC1)C[C@H](C(=O)O)c1ccccc12.Cl )
### Response 1.7 h

### Prompt # get_value(readout='half-life', item= CC(C)(N)C(=O)N[C@H](COCc1ccccc1)C(=O)N1CCC2(CC1)CN(S(C)(=O)=O)c1ccccc12.Cl )
### Response 4.8 h
